tested on: SK-MEL-5; assay: Cytotoxicity against human SK-MEL-5 cells assessed as growth inhibition after 48 hrs by SRB assay; type: functional; conditions: SK-MEL-5, 48 h
GI50: recorded values
Give the number; µM is assumed, so skip it.

INSERT INTO assay_data (structure_smiles_string, outcome_measure, unit_abbrev, numeric_result) VALUES
  ('CCSc1nc2ccc3c(c2[nH]1)C(=O)c1ccccc1C3=O', 'GI50', 'µM', 33.6),
  ('CN(C)CCCSc1nc2ccc3c(c2[nH]1)C(=O)c1ccccc1C3=O', 'GI50', 'µM', 11.1);

Quote GI50 with test system SK-MEL-5 for `O=C1c2ccccc2C(=O)c2c1ccc1nc(SCCN3CCCC3)[nH]c21`
12.9

* * *

tested on: COLO 205; test: Cytotoxicity against human COLO205 cells assessed as growth inhibition after 48 hrs by SRB assay; format: functional; settings: COLO 205, 48 h
TGI: recorded values
Give the number; µM is assumed, so skip it.

INSERT INTO assay_data (structure_smiles_string, outcome_measure, numeric_result) VALUES
  ('CN(C)CCCSc1nc2ccc3c(c2[nH]1)C(=O)c1ccccc1C3=O', 'TGI', 17.1);

Next up:
Quote TGI with test system COLO 205 for `O=C1c2ccccc2C(=O)c2c1ccc1nc(SCCN3CCCC3)[nH]c21`
16.7

* * *

system: SR; assay: Cytotoxicity against human SR cells assessed as growth inhibition after 48 hrs by SRB assay; assay type: functional
OUTCOME MEASURE: GI50

For orientation, consider the following solved cases.
INSERT INTO measurements (structure_smiles_string, tgt, result) VALUES
  ('CN(C)CCCSc1nc2ccc3c(c2[nH]1)C(=O)c1ccccc1C3=O', 'SR', '430 nM'),
  ('CCCSc1nc2ccc3c(c2[nH]1)C(=O)c1ccccc1C3=O', 'SR', '4630 nM'),
  ('O=C1c2ccccc2C(=O)c2c1ccc1nc(SCCN3CCCC3)[nH]c21', 'SR', '1480 nM');

Next up:
Please list GI50 recorded for the compound `CCSc1nc2ccc3c(c2[nH]1)C(=O)c1ccccc1C3=O`
2360 nM

* * *

tested on: RXF 393; assay: Cytotoxicity against human RXF393 cells assessed as growth inhibition after 48 hrs by SRB assay; type: functional; conditions: RXF 393, 48 h, read-out: LC50 (the source's name)
OUTCOME MEASURE: CC50 (µM)
Give the number; µM is assumed, so skip it.

Please list CC50 recorded for the compound `O=C1c2ccccc2C(=O)c2c1ccc1nc(SCCN3CCCC3)[nH]c21`
48.5

Please list CC50 recorded for the compound `CN(C)CCCSc1nc2ccc3c(c2[nH]1)C(=O)c1ccccc1C3=O`
42.3

* * *

system: BT-549; assay: Cytotoxicity against human BT549 cells assessed as growth inhibition after 48 hrs by SRB assay; type: functional; conditions: BT-549, 48 h
GI50: recorded values
Give the number; µM is assumed, so skip it.

For orientation, consider the following solved cases.
INSERT INTO assay_data (structure_smiles_string, unit_abbrev, numeric_result) VALUES
  ('O=C1c2ccccc2C(=O)c2c1ccc1nc(SCCN3CCCC3)[nH]c21', 'µM', 12.5),
  ('CN(C)CCCSc1nc2ccc3c(c2[nH]1)C(=O)c1ccccc1C3=O', 'µM', 9.13),
  ('CCCSc1nc2ccc3c(c2[nH]1)C(=O)c1ccccc1C3=O', 'µM', 33.4);

Quote GI50 with test system BT-549 for `CCSc1nc2ccc3c(c2[nH]1)C(=O)c1ccccc1C3=O`
9.34
